Where do these numbers come from? They come from PubChem BioAssay.

- Assay: resazurin metabolic signal in HepG2 cells – cell-based, resazurin fluorescence, 24 h, PK04 Diversity Set, profiling panel (AID 1172); further: test concentration not given here
- Condition notes: HepG2 viability, higher = more signal
Listed here are molecules together with their documented z-score.
# output: bare number, no unit

[Q] Entry under review: O=C1C2C=CC(C(O)C3CC=CCC3)N(n3cnnc3)C2C(=O)N1Cc1ccccc1 (stereo not drawn) . Reported z-score?
[A] -0.854

[Q] Entry under review: CCCC[C@H]1OB(O)C[C@H]2C1=C(COc1ccccc1)C[C@H]1C(=O)N(Cc3ccccc3)C(=O)[C@H]12 . Reported z-score?
[A] 0.552

[Q] Entry under review: CO[C@H]1O[C@H](CO)[C@@H](OC(=O)Nc2ccccc2-c2ccccc2)[C@H](OC(=O)Nc2ccccc2-c2ccccc2)[C@H]1OC(=O)Nc1ccccc1-c1ccccc1 . Reported z-score?
[A] -1.04
